assay_readout: Ki (nM)
State just the number; it will be interpreted in nM.

Input: State recorded Ki with UniProt:P11229, entry C[N+]1(C)[C@@H]2CC[C@H]1C[C@@H](C=C(c1cccs1)c1cccs1)C2.[Br-] , no comment.
Sequence (P11229 whole entry): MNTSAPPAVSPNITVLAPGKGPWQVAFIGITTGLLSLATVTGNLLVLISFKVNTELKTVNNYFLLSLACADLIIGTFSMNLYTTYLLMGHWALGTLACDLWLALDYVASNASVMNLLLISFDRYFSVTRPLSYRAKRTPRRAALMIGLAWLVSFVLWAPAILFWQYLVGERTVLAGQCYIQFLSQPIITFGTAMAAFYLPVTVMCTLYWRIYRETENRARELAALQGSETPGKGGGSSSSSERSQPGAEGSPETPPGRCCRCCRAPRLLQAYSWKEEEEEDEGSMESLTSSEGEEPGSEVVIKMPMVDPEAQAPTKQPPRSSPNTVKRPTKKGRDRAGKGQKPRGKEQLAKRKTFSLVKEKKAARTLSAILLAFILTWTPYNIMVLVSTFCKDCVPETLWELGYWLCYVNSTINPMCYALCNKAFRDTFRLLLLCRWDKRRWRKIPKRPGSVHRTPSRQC
Output: 0.38

====

# test_method_notes: Systemic plasma clearance in rat at 2.8 mg/kg, iv
# Format: ADME, organism-based
# Set-up: dose 2.8 mg/kg, route intravenous
assay_readout: clearance

Input: Please look at this compound and report its clearance: C[N+]1(C)[C@@H]2CC[C@H]1C[C@@H](C=C(c1cccs1)c1cccs1)C2.[Br-]
Output: 5.1 L/h/kg

====

# assayed_target: UniProt:P20309
# Sequence (P20309 whole entry): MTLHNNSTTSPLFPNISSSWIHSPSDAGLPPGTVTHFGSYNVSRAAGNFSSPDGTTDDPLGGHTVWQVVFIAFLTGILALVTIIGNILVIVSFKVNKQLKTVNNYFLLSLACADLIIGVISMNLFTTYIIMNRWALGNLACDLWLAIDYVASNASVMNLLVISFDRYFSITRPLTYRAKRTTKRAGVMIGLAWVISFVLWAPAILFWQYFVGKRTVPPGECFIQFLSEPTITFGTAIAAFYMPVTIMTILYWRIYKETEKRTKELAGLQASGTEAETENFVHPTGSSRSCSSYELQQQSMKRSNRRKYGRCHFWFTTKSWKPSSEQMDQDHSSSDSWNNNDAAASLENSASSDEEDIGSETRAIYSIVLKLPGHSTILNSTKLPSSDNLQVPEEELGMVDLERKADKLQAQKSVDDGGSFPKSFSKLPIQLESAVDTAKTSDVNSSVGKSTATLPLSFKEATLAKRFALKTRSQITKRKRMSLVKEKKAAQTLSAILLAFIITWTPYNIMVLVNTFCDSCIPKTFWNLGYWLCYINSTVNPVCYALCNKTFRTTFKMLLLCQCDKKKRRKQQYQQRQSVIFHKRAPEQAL
# test_method_notes: Antagonist activity against human M3 receptor expressed in CHO cells assessed as inhibition of acetylcholine-induced calcium mobilization by FLIPR
# Type: functional, cell-based
# assay_conditions: read-out: pA2 (converted)
assay_readout: Kb

Input: Please look at this compound and report its Kb: Cc1ccccc1C(=C[C@H]1C[C@H]2CC[C@@H](C1)[N+]2(C)C)c1ccccc1C.[Br-]
Output: 0.1 nM

Input: Please look at this compound and report its Kb: C[N+]1(C)[C@@H]2CCC[C@H]1C[C@@H](CC(O)(c1cccs1)c1cccs1)C2.[I-]
Output: 2 nM

Input: Please look at this compound and report its Kb: CN1[C@@H]2CC[C@H]1C[C@@H](CC(O)(c1cccs1)c1cccs1)C2
Output: 2.51 nM

Input: Please look at this compound and report its Kb: CN1[C@@H]2CC[C@H]1C[C@@H](CC(C(N)=O)(c1ccccc1)c1ccccc1)C2
Output: 0.1 nM

Input: Please look at this compound and report its Kb: C[N+]1(C)[C@@H]2CCC[C@H]1C[C@H](CC(O)(c1ccccc1)c1ccccc1)C2.[Br-]
Output: 1.58 nM

Input: Please look at this compound and report its Kb: C[N+]1(C)[C@@H]2CC[C@H]1C[C@@H](C=C(c1ccccc1)c1ccccc1)C2.[Br-]
Output: 5.01 nM
